# measurement-protocol: GST conjugation activity with Atrazine (HPLC)
# Assay type: biochemical
# experimental-parameters: 0.4 mM electrophilic substrate, 4 mM glutathione, 0.1 M MOPS pH 7.0, corrected for uncatalyzed reaction
# Activity of soybean GST enzyme, Atrazine values compiled below
Write it as a number; the unit nmol/min/mg goes unstated.

molecule: ssl.pk0005.e6: soybean type III GST encoded by cDNA insert in clone ss1.pk0005.e6 (protein) MTDEVVLLDFWPSPFGMRVRIALAEKGIEYEYKEEDLRNKSPLLLQMNPVHKKIPVLIHNGKPISESLIAVQYIEEVWNDRNPLLPSDPYQRAQARFWADYVDIKIHDLGKKIWTSKGEEKEAAKKEFIEALKLLEEQLGDKTYFGGDNIGFVDIALVPFYTWFKVYETFGSLNIENECPRFVAWAKRCLQKESVAKSLPDQHKVYEFVVEIRKKLVIE
Activity of soybean GST enzyme, Atrazine, nmol/min/mg: 0.00

Let us move to another entry and its Activity of soybean GST enzyme, Atrazine.
Requested field: Activity of soybean GST enzyme, Atrazine. Item: ssl.pk0020.b10: soybean type III GST encoded by cDNA insert in clone ss1.pk0020.b10 (protein) MAEQDKVILHGMWASPYAKRVELALNFKGIPYEYVEEDLRNKSDLLLKYNPVHKKVPVLVHNGKAIAESMVILEYIDETWKDGPKLLPSDSYKRAQARFWCHFIQDQLMESTFLVVKTDGEAQQKAIDHVYEKLKVLEDGMKTYLGEGNAIISGVENNFGILDIVFCALYGAYKAHEEVIGLKFIVPEKFPVLFSWLMAIAEVEAVKIATPPHEKTVGILQLFRLSALKSSSATE
0.03

Taken from patent US6168954A.
